Cited source for all entries: patent US20120071419A1

Kindly state OD at 650 nm for each of the entries shown.
SYSTEM TESTED: T1, EGFR (Epidermal Growth Factor Receptor) (human, UniProt P00533 26-444, limits assumed)
T1 construct: also called EGF receptor
EXPERIMENT SUMMARY: phage ELISA, wells coated with 4 ug/ml EGFR, anti-M13-HRP

If you can, please state the reported OD at 650 nm value of clone 31 of the 1OZJ scaffold (designed binder, domain: Smad3-MH1) MSSILPFTPPIVKRLLGWKKGEQNGQEEKWCEKAVKSLVKKLKGTGQLDELEKAITTQNVNTKCITIPRSLDGRLQVSHRKGLPHVIYCRLWRWPDLHSHHELRAMHLCPFAFKMKKWEVCVNPYHYQRVETPVLPPVLVPRHT .
0.959 OD

Lookup clone 53 of the 1OZJ scaffold (designed binder, domain: Smad3-MH1) MSSILPFTPPIVKRLLGWKKGEQNGQEEKWCEKAVKSLVKKLKATGQLDELEKAITTQNVNTKCITIPRSLDGRLQVSHRKGLPHVIYCRLWRWPDLHSHHELRAMSLCSFAFSMKKIEVCVNPYHYQRVETPVLPPVLVPRHT
1.02 OD

Lookup clone 9 of the 1OZJ scaffold (designed binder) MSSILPFTPPIVKRLLGWKKGEQNGQEEKWCEKAVKSLVKKLKATGQLDELEKAITTQNVNTKCITIPRSLDGRLQVSHRKGLPHVIYCRLWRWPDLHSHHELRAMQLCIFAFLMKKPEVCVNPYHYQRVETPVLPPVLVPRHT
1.75 OD

Lookup clone 54 of the 1OZJ scaffold (designed binder, domain: Smad3-MH1) MSSILPFTPPIVKRLLGWKKGEQNGQEEKWCEKAVKSLVKKLKCTGQLDELEKAITTQNVNTKCITIPRSLDGRLQVSHRKGLPHVIYCRLWRWPDLHSHHELRAMILCDFAFPMKKREVCVNPYHYQRVETPVLPPVLVPRHT
1.16 OD
